- tested_system: Leucine aminopeptidase (Sus scrofa, UniProt Q29571)
- Sequence (Q29571 whole entry): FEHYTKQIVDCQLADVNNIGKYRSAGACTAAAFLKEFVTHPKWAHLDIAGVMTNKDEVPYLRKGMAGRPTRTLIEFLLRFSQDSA
- method: Prodrug conversion assessed as porcine leucine aminopeptidase-mediated compound cleavage by HPLC analysis; note: time not given here
- Format: ADME
- cond: pig
measured_quantity: Drug metabolism

[ask] Which Drug metabolism value is on record for COc1ccc(/C=C\c2cc(OC)c(OC)c(OC)c2)c(NC(=O)CN)c1NC(=O)CN.Cl.Cl ?
[reply] < 50%

[ask] Reported Drug metabolism for COc1ccc2c(c1NC(=O)[C@@H](N)CO)CCCC=C2c1cc(OC)c(OC)c(OC)c1.Cl : what is it?
[reply] < 10%

[ask] Recorded Drug metabolism of COc1ccc2c(c1NC(=O)[C@@H](N)CO)CCC=C2c1cc(OC)c(OC)c(OC)c1.Cl , please.
[reply] < 10%
